- TARGET OR TEST SYSTEM: UniProt:P05164
- Sequence (P05164 49-745): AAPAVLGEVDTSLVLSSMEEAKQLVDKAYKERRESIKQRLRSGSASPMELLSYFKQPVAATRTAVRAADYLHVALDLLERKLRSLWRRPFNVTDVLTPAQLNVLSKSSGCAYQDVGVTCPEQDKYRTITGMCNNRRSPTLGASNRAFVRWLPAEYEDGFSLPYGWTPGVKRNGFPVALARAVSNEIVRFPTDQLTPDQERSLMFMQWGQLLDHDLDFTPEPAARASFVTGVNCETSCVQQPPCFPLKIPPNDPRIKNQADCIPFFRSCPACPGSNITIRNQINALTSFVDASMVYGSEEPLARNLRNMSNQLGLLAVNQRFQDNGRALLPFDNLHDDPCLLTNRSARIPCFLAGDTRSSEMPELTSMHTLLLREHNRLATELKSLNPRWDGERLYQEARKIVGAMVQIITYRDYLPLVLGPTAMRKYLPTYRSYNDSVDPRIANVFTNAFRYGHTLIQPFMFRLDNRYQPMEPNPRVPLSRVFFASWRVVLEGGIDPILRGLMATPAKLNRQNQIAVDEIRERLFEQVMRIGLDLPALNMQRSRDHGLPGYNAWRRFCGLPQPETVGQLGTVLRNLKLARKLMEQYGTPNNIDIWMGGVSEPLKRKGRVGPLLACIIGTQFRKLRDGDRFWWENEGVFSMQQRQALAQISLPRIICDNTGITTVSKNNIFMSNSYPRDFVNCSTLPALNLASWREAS
- PROTOCOL DESCRIPTION: MPO chlorination assay (APF)
- Assay type: biochemical
- COND: MPO chlorination assay (APF), Table 1; read-out: APF IC50
RECORDED ENDPOINT: log10 of IC50 (log10 of the value in nM)
Note: values are log10 of IC50 expressed in nM.

Here is how some compounds turned out for log10 of IC50.
1) Cc1nn(-c2ccc(F)cc2)c(C)c1CSc1cc(N)nc2[nH]nnc12 [Example 72] ... 2.76
2) Nc1cc(SCc2cn(-c3ccccc3)nc2C(F)(F)F)c2nn[nH]c2n1 [Example 113] ... 1.00
3) Nc1nc(SCc2ccccc2CN2CCCC2)c2nn[nH]c2n1 [Example 166] ... 2.76

List the reported log10 of IC50 of each compound below.
1. Nc1cc(SC(CO)c2ccccc2)c2nn[nH]c2n1 (centres unmarked) [Example 126]
2. CCC(Sc1cc(N)nc2[nH]nnc12)c1ccccc1 (centres unmarked) [Example 45]
3. Nc1cc(SCc2cn(-c3cccnn3)nc2C(F)F)c2nn[nH]c2n1 [Example 144]
4. Cc1ncn(C)c1CSc1cc(N)nc2[nH]nnc12 [Example 77]
5. N#Cc1ccc(C2CC2)c(CSc2cc(N)nc3[nH]nnc23)c1 [Example 88]
6. Nc1cc(SCc2cc(C(F)(F)F)ccc2C(F)(F)F)c2nn[nH]c2n1 [Example 39]
7. Nc1cc(SCc2ccccc2F)c2nn[nH]c2n1 [Example 3]
8. CCOC(=O)c1cc(CSc2cc(N)nc3[nH]nnc23)n(C)n1 [Example 70]

result:
1. 1.90
2. 1.90
3. 1.90
4. 2.79
5. 0.95
6. 1.30
7. 1.00
8. 2.88
